Assay Comment: qHTS RealTime-Glo MT Cell Viability Assay in HEK293 cells - 32 hour (AID 1224868); note: nearly all actives have a fitted effect of over 50% in size
Assay Context: RealTime-Glo luminescence; series mostly up to 76.8 µM
Records with an inconclusive call do not appear. The source made the active and inactive calls. Calls come from the whole dose curve; as a rule, active = well fitted cell-killing curve with a large enough effect in the repeat runs; inconclusive = weak or mixed curves, or effect the other way; inactive = flat fitted curve, though single readings scatter.
Respond with a class label; see TRUE for active, FALSE for inactive

Task item: Assay result, entry CC(C)CCCCCOC(=O)c1ccccc1C(=O)OCCCCCC(C)C — outcome?
Reply: FALSE

Task item: Assay result, entry C=CCC1=C(C)C(OC(=O)C2C(C=C(C)C)C2(C)C)CC1=O (stereo not given) — outcome?
Reply: TRUE

Task item: Assay result, entry CCc1cc(C)cc(CC)c1-c1c(OC(=O)C(C)(C)C)n2n(c1=O)CCOCC2 — outcome?
Reply: FALSE

Task item: Assay result, entry O=c1c(C2CC(c3ccc(-c4ccc(Br)cc4)cc3)Cc3ccccc32)c(O)sc2ccccc12 (stereo not given) — outcome?
Reply: FALSE

Task item: Assay result, entry Cc1ccc(CCl)cc1 — outcome?
Reply: FALSE
